molecular target: X-box-binding protein 1 (Rattus norvegicus) (UniProt Q9R1S4); experiment: Transactivation of XBP1 in rat IEC-6 cells at 10 uM after 48 hrs by dual luciferase reporter gene assay relative to con2; assay type: cell-based
Sequence (Q9R1S4 whole entry): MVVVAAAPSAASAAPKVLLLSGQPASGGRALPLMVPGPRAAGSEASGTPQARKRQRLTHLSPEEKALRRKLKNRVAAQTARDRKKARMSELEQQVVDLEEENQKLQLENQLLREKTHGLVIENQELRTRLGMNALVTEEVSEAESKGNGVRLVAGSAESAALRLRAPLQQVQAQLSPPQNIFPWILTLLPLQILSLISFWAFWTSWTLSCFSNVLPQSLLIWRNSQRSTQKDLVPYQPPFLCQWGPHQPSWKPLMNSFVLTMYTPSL
Recorded Endpoint: fold change (FC)
Answers are plain numbers.

| Compound | fold change (FC) |
| --- | --- |
| C/C1=C\[C@@H](O)C[C@@]2(C)O[C@@H]2C[C@]2(C(C)C)CC[C@@](C)(O2)[C@H](O)CC1=O | 2.5 |
| C/C1=C/C[C@@H](O)[C@@]2(C)CC[C@@](C(C)C)(C[C@@H](O)[C@]3(C)CC[C@H]1O3)O2 | 1.5 |
| O=c1c2c3c(ccc2cc2n1CCc1cc4c(cc1-2)OCO4)OCO3 | 2.2 |

For every listed record, write down its fold change (FC).
1. CC(C)[C@@]12CC[C@@](C)(O1)[C@H](O)CC/C(C=O)=C/CC[C@@]1(C)O[C@@H]1C2
2. C/C1=C\CC[C@@]2(C)O[C@@H]2C[C@]2(C(C)C)CC[C@@](C)(O2)[C@H](O)CC1=O (relative stereo)

[1.6, 1.5]
